The reported numbers originate from the NIST ThermoML archive (doi:10.1016/j.tca.2018.04.007).

Conditions: 333.15 K; 101.33 kPa; Liquid; transient hot wire
Use 0.2 W/m/K as the dividing line for thermal conductivity, with the line itself on the MET side and lower values as NOT MET.

Task: Is thermal conductivity at least 0.2 W/m/K? Consider CCCC[P+](C)(CCCC)CCCC.COS(=O)(=O)[O-] [tributylmethylphosphonium methyl sulfate]
Output: NOT MET

Task: Is thermal conductivity at least 0.2 W/m/K? Consider CCCC[P+](C)(CCCC)CCCC.[Cl-] [methyltributylphosphonium chloride]
Output: NOT MET

Task: Is thermal conductivity at least 0.2 W/m/K? Consider CCCCn1cc[n+](C)c1.COS(=O)(=O)[O-] [1-butyl-3-methylimidazolium methyl sulfate]
Output: NOT MET

Task: Is thermal conductivity at least 0.2 W/m/K? Consider OCC(O)CO
Output: MET

Task: Is thermal conductivity at least 0.2 W/m/K? Consider CCCC[P+](C)(CCCC)CCCC.O=S(=O)([N-]S(=O)(=O)C(F)(F)F)C(F)(F)F
Output: NOT MET

====

Conditions: 343.15 K; 101.33 kPa; Liquid; Vibrating tube method
Use 1000 kg/m3 as the dividing line for mass density, with the line itself on the Yes side and lower values as No.

Task: Is mass density at least 1000 kg/m3? Consider COS(=O)(=O)[O-].C[n+]1ccccc1 [1-methylpyridinium methylsulfate]
Output: Yes

Task: Is mass density at least 1000 kg/m3? Consider CCCCn1cc[n+](C)c1.COS(=O)(=O)[O-] [1-butyl-3-methylimidazolium methyl sulfate]
Output: Yes

Task: Is mass density at least 1000 kg/m3? Consider CCCC[P+](C)(CCCC)CCCC.O=S(=O)([N-]S(=O)(=O)C(F)(F)F)C(F)(F)F
Output: Yes

Task: Is mass density at least 1000 kg/m3? Consider CCCC[P+](C)(CCCC)CCCC.COS(=O)(=O)[O-] [tributylmethylphosphonium methyl sulfate]
Output: Yes

Task: Is mass density at least 1000 kg/m3? Consider CCCC[P+](C)(CCCC)CCCC.[Cl-] [methyltributylphosphonium chloride]
Output: No

====

What log10(viscosity) was measured for each of the following?
Details: 293.15 K; 101.33 kPa; Liquid; Capillary tube (Ostwald / Ubbelohde) method
Remember, log10 of viscosity, in mPa·s.

Task: Retrieve log10(viscosity) measured for CCCC[P+](C)(CCCC)CCCC.COS(=O)(=O)[O-] [tributylmethylphosphonium methyl sulfate] and print it.
Output: 3.16

Task: Retrieve log10(viscosity) measured for COS(=O)(=O)[O-].C[n+]1ccccc1 [1-methylpyridinium methylsulfate] and print it.
Output: 2.05

Task: Retrieve log10(viscosity) measured for CCCC[P+](C)(CCCC)CCCC.O=S(=O)([N-]S(=O)(=O)C(F)(F)F)C(F)(F)F and print it.
Output: 2.48

Task: Retrieve log10(viscosity) measured for CCCCn1cc[n+](C)c1.COS(=O)(=O)[O-] [1-butyl-3-methylimidazolium methyl sulfate] and print it.
Output: 2.43

Task: Retrieve log10(viscosity) measured for CCCC[P+](C)(CCCC)CCCC.[Cl-] [methyltributylphosphonium chloride] and print it.
Output: 4.13

====

Conditions: 313.15 K; 101.33 kPa; Liquid; Vibrating tube method
Use 1000 kg/m3 as the dividing line for mass density, with the line itself on the Yes side and lower values as No.

Task: Is mass density at least 1000 kg/m3? Consider CCCC[P+](C)(CCCC)CCCC.O=S(=O)([N-]S(=O)(=O)C(F)(F)F)C(F)(F)F
Output: Yes

Task: Is mass density at least 1000 kg/m3? Consider CCCCn1cc[n+](C)c1.COS(=O)(=O)[O-] [1-butyl-3-methylimidazolium methyl sulfate]
Output: Yes

Task: Is mass density at least 1000 kg/m3? Consider COS(=O)(=O)[O-].C[n+]1ccccc1 [1-methylpyridinium methylsulfate]
Output: Yes

Task: Is mass density at least 1000 kg/m3? Consider CCCC[P+](C)(CCCC)CCCC.[Cl-] [methyltributylphosphonium chloride]
Output: No

Task: Is mass density at least 1000 kg/m3? Consider CCCC[P+](C)(CCCC)CCCC.COS(=O)(=O)[O-] [tributylmethylphosphonium methyl sulfate]
Output: Yes
